Measured values drawn from ChEMBL document CHEMBL3885861 for this set.

Answer each item with its documented WBC.
Species on record: Rattus norvegicus
Test: Open TG-GATES - Regimen: Single
Assay type: toxicity, organism-based, Sprague-Dawley
Set-up: regimen Single, gender Male, age 6 weeks
Conditions: in vivo, po, 0 mg/kg, 6 h, tissue Blood, route gavage, dose level Control
Write down the numeric answer in x10_2/uL and omit the unit.

Query: Look up and state reported WBC for CN(C)CCC=C1c2ccccc2CCc2ccccc21 [AMITRIPTYLINE]
Result: 66

Query: Look up and state reported WBC for O=C(O)c1cc(/N=N/c2ccc(S(=O)(=O)Nc3ccccn3)cc2)ccc1O [SULFASALAZINE]
Result: 74.8

Query: Look up and state reported WBC for CCc1cc(C(N)=S)ccn1 [ETHIONAMIDE]
Result: 114.3

Query: Look up and state reported WBC for CSc1ccc2c(c1)N(CCC1CCCCN1C)c1ccccc1S2 (configuration not stated) [THIORIDAZINE]
Result: 117.4

Query: Look up and state reported WBC for NC(=O)N1c2ccccc2C=Cc2ccccc21 [CARBAMAZEPINE]
Result: 94.2

Query: Look up and state reported WBC for CC(=O)Oc1ccccc1C(=O)O [ASPIRIN]
Result: 104.9

Query: Look up and state reported WBC for Clc1ccccc1CN1CCc2sccc2C1 [TICLOPIDINE]
Result: 93.2

Query: Look up and state reported WBC for COc1ccc(Cc2nccc3cc(OC)c(OC)cc23)cc1OC [PAPAVERINE]
Result: 118.9

Query: Look up and state reported WBC for C[C@H](CS)C(=O)N1CCC[C@H]1C(=O)O [CAPTOPRIL]
Result: 124.4

Query: Look up and state reported WBC for NC(=O)N/N=C/c1ccc([N+](=O)[O-])o1 [NITROFURAZONE]
Result: 90.9

Query: Look up and state reported WBC for O=C(O)c1cn(C2CC2)c2cc(N3CCNCC3)c(F)cc2c1=O [CIPROFLOXACIN]
Result: 125

Query: Look up and state reported WBC for Cn1c(=O)c2[nH]cnc2n(C)c1=O.O [THEOPHYLLINE]
Result: 102.6

###

Organism: Rattus norvegicus
Experiment: Open TG-GATES - Regimen: Single
Type: toxicity, organism-based, Sprague-Dawley
Set-up: regimen Single, gender Male, age 6 weeks
Details: in vivo, po, 1000 mg/kg, 6 h, tissue Blood, route gavage, dose level High
Answer each item with its documented Ht.
Write down the numeric answer in % and omit the unit.

Query: Look up and state reported Ht for Clc1ccccc1CN1CCc2sccc2C1 [TICLOPIDINE]
Result: 38.4

Query: Look up and state reported Ht for CCc1cc(C(N)=S)ccn1 [ETHIONAMIDE]
Result: 43.1

Query: Look up and state reported Ht for O=C(O)c1cn(C2CC2)c2cc(N3CCNCC3)c(F)cc2c1=O [CIPROFLOXACIN]
Result: 39.1

Query: Look up and state reported Ht for C[C@H](CS)C(=O)N1CCC[C@H]1C(=O)O [CAPTOPRIL]
Result: 40.4

Query: Look up and state reported Ht for O=C(O)c1cc(/N=N/c2ccc(S(=O)(=O)Nc3ccccn3)cc2)ccc1O [SULFASALAZINE]
Result: 38.3

###

Species on record: Rattus norvegicus
Assay: Open TG-GATES - Regimen: Single
Format: toxicity, organism-based, Sprague-Dawley
Set-up: regimen Single, gender Male, age 6 weeks
Conditions: in vivo, po, 300 mg/kg, 24 h, tissue Plasma, route gavage, dose level Middle
Answer each item with its documented ALP.
Write down the numeric answer in IU/L and omit the unit.

Query: Look up and state reported ALP for "O=C(O)c1cn(C2CC2)c2cc(N3CCNCC3)c(F)cc2c1=O"
Result: 843

Query: Look up and state reported ALP for "O=C(O)c1cc(/N=N/c2ccc(S(=O)(=O)Nc3ccccn3)cc2)ccc1O"
Result: 992.4

Query: Look up and state reported ALP for "Clc1ccccc1CN1CCc2sccc2C1"
Result: 1118.8

Query: Look up and state reported ALP for CCc1cc(C(N)=S)ccn1 [ETHIONAMIDE]
Result: 1035.2
